The origin of these recorded values is patent US12310975B2.

# System Name: BCL6 (Homo sapiens (Human))
# Procedure Text: Immunofluorescence high content imaging of BCL6 degradation in T47D cells
# Type: cell-based
# Test Conditions: T47D cells
Please provide measured Dmax for the entries that follow.

Worked examples, 5 compounds total:
Compound: CNC(=O)COc1cc2cc(Nc3nc(N4CCC(OC5CC6(CCN(c7ccc8c(c7)C(=O)N(C7CCC(=O)NC7=O)C8=O)CC6)C5)CC4)ncc3Cl)ccc2n(C(C)C)c1=O (stereo not drawn) [compound 390]
Dmax: 50 to 70%

Compound: CCn1c(=O)c(OCC(=O)NC)cc2cc(Nc3nc(N4CCN([C@@H]5C[C@@H](COc6ccc7c(c6)C(=O)N(C6CCC(=O)NC6=O)C7=O)N(C)C5)CC4)ncc3Cl)ccc21 (stereo partly drawn) [compound 357]
Dmax: < 50%

Compound: CCn1c(=O)c(OCC(=O)NC)cc2cc(Nc3nc(N4CCC(COC5CCN(c6cccc7c6C(=O)N(C6CCC(=O)NC6=O)C7=O)CC5)CC4)ncc3Cl)ccc21 (stereo not drawn) [compound 332]
Dmax: 50 to 70%

Compound: CNC(=O)COc1cc2cc(Nc3nc(N4CCC(CN5CCC6(CC5)CN(c5cccc7c5C(=O)N(C5CCC(=O)NC5=O)C7=O)C6)CC4)ncc3Cl)ccc2n(C(C)C)c1=O (stereo not drawn) [compound 418]
Dmax: ≥ 70%

Compound: CCCCn1c(=O)c(OCC(=O)NC)cc2cc(Nc3nc(N4CCC[C@H](COc5cccc6c5C(=O)N(C5CCC(=O)NC5=O)C6=O)C4)ncc3Cl)ccc21 (stereo partly drawn) [compound 324]
Dmax: 50 to 70%

Go through the list and state Dmax for each entry.
1. CNC(=O)COc1cc2cc(Nc3nc(N4CCC(OC5CC6(C5)CN(c5cccc7c5CN(C5CCC(=O)NC5=O)C7=O)C6)CC4)ncc3Cl)ccc2n(C(C)C)c1=O (stereo not drawn) [compound 424]
2. CNC(=O)COc1cc2cc(Nc3nc(N4CCN(CC5CCN(c6cccc(C(=O)NC7CCC(=O)NC7=O)c6)CC5)CC4)ncc3Cl)ccc2n(C)c1=O (stereo not drawn) [compound 319]
3. CNC(=O)COc1cc2cc(Nc3nc(N4CCC(F)(CN5CCN(c6ccc7c(c6)C(=O)N(C6CCC(=O)NC6=O)C7=O)CC5)CC4)ncc3Cl)ccc2n(C)c1=O (stereo not drawn) [compound 340]
4. CCn1c(=O)c(OCC(=O)NC)cc2cc(Nc3nc(N4CCC(OC5CN(C6CN(c7ccc8c(c7)C(=O)N(C7CCC(=O)NC7=O)C8=O)C6)C5)CC4)ncc3Cl)ccc21 (stereo not drawn) [compound 328]
5. CNC(=O)COc1cc2cc(Nc3nc(N4CCC(OC5CC6(CCN(c7cccc(C(=O)NC8CCC(=O)NC8=O)c7F)CC6)C5)CC4)ncc3Cl)ccc2n(C(C)C)c1=O (stereo not drawn) [compound 433]
6. CNC(=O)COc1cc2cc(Nc3nc(N4CCO[C@H](COc5ccc(C(=O)NC6CCC(=O)NC6=O)c(OC)c5)C4)ncc3Cl)ccc2n(C(C)C)c1=O (stereo partly drawn) [compound 351]

# output
≥ 70%
< 50%
50 to 70%
50 to 70%
≥ 70%
< 50%

Go through the list and state Dmax for each entry.
1. CNC(=O)COc1cc2cc(Nc3nc(N4CC5(CC(OC6CCN(c7cccc8c7C(=O)N(C7CCC(=O)NC7=O)C8=O)CC6)C5)C4)ncc3Cl)ccc2n(C(C)C)c1=O (stereo not drawn) [compound 406]
2. CNC(=O)COc1cc2cc(Nc3nc(N4CCN(CC5CCCN5c5ccc6c(c5)C(=O)N(C5CCC(=O)NC5=O)C6=O)CC4)ncc3Cl)ccc2n(C(C)C)c1=O (stereo not drawn) [compound 380]
3. CNC(=O)COc1cc2cc(Nc3nc(N4CCC(F)(CN5CCN(c6ccc(C(=O)NC7CCC(=O)NC7=O)c(OC)c6)CC5)CC4)ncc3Cl)ccc2n(C)c1=O (stereo not drawn) [compound 366]

# output
["≥ 70%", "< 50%", "50 to 70%"]

Go through the list and state Dmax for each entry.
1. CNC(=O)COc1cc2cc(Nc3nc(N4CCN(C(C)(C)C5CCN(c6cccc(C(=O)NC7CCC(=O)NC7=O)[n+]6[O-])CC5)CC4)ncc3Cl)ccc2n(C)c1=O (stereo not drawn) [compound 396]
2. CNC(=O)COc1cc2cc(Nc3nc(N4CCN(CC5CCN(c6cnc(C(=O)NC7CCC(=O)NC7=O)c(OC)c6)CC5)CC4)ncc3Cl)ccc2n(C)c1=O (stereo not drawn) [compound 359]
3. CNC(=O)COc1cc2cc(Nc3nc(N4CCC(OC5CCC6(CC5)CN(c5cccc7c5C(=O)N(C5CCC(=O)NC5=O)C7=O)C6)CC4)ncc3Cl)ccc2n(C(C)C)c1=O (stereo not drawn) [compound 434]
4. CNC(=O)COc1cc2cc(Nc3nc(N4CCN(CC5CCN(c6cccc7c6CN(C6CCC(=O)NC6=O)C7=O)CC5)CC4)ncc3Cl)ccc2n(C(C)C)c1=O (stereo not drawn) [compound 423]
5. CNC(=O)COc1cc2cc(Nc3nc(N4CCC5(CC4)CN(CC4CCN(c6cccc7c6C(=O)N(C6CCC(=O)NC6=O)C7=O)CC4)C5)ncc3Cl)ccc2n(C(C)C)c1=O (stereo not drawn) [compound 385]
6. CNC(=O)COc1cc2cc(Nc3nc(N4CCC(CN5CCC(c6cccc7c6C(=O)N(C6CCC(=O)NC6=O)C7=O)CC5)CC4)ncc3Cl)ccc2n(C(C)C)c1=O (stereo not drawn) [compound 386]
7. CCn1c(=O)c(OCC(=O)NC)cc2cc(Nc3nc(N4CCC(OCC5CCN(c6cccc7c6C(=O)N(C6CCC(=O)NC6=O)C7=O)CC5)CC4)ncc3Cl)ccc21 (stereo not drawn) [compound 330]

# output
1: < 50%; 2: 50 to 70%; 3: 50 to 70%; 4: ≥ 70%; 5: 50 to 70%; 6: 50 to 70%; 7: 50 to 70%
